Target: ALK4 (Homo sapiens)
Sequence (P36896 24-505): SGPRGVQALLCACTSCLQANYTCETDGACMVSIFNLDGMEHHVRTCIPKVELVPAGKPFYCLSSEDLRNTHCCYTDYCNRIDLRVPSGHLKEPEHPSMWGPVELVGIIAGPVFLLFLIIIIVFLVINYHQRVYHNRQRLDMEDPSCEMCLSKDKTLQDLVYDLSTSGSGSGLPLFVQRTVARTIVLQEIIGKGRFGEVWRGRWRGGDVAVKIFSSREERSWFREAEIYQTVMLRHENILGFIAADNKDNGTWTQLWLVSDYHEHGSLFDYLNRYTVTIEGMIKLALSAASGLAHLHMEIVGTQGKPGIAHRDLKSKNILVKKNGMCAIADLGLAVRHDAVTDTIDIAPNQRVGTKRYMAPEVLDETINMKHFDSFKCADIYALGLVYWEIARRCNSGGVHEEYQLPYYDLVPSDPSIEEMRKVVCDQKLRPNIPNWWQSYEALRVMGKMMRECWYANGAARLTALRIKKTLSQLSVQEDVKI
Assay: TR-FRET enzymatic ALK kinase assay, ALK4
measurement name: IC50

Worked cases, answers included:
> print(dat)
                                    compound    value
 1  CC(O)c1cccc(-c2cnn3cc(-c4ccc(CCN5CCCC5)cc4)cnc23)c1 (stereo not drawn)  > 10 µM
 2  C[C@H](O)c1cccc(-c2cnn3cc(-c4ccc(OC5(CN6CCCCC6)CC5)cc4)cnc23)c1  > 10 µM
 3  NC(=O)c1cccc2c(-c3cnn4cc(-c5ccc(N6CCNCC6)cc5)cnc34)cccc12  2.69 µM
 4  NC(c1cccc(-c2cnn3cc(-c4ccc(OC5(CN6CCC(O)C6)CC5)cc4)cnc23)c1)C(F)(F)F (stereo not drawn)  > 10 µM
 5  C[C@@H]1CNC[C@H](C)N1c1ccc(-c2cnc3c(-c4cccc(C(F)(F)F)c4)cnn3c2)cc1  > 10 µM
 6  CS(=O)(=O)c1cccc(-c2cnn3cc(-c4ccc(CCN5CCOCC5)cc4)cnc23)c1  > 10 µM
 7  C[C@@H]1CNC[C@H](C)N1c1ccc(-c2cnc3c(-c4cccc(C#N)c4)cnn3c2)cc1  > 10 µM
 8  CC(C)S(=O)(=O)c1cccc(-c2cnn3cc(-c4ccc(N5[C@H](C)CNC[C@@H]5C)cc4)cnc23)c1   4.1 µM
 9  C[C@@H]1CNC[C@H](C)N1c1ccc(-c2cnc3c(-c4cccc5c(C(N)=O)cccc45)cnn3c2)cc1  1.07 µM
10  c1cc(-c2cc[nH]n2)cc(-c2cnn3cc(-c4ccc(CCN5CCCCC5)cc4)cnc23)c1  0.87 µM

Requested read-out: IC50. Entry: CS(=O)(=O)c1cccc(-c2cnn3cc(-c4ccc(OCCN5CCCC5)cc4)cnc23)c1
> 10 µM

// query: Cc1ccc(-c2cnn3cc(-c4ccc(N5[C@H](C)CNC[C@@H]5C)cc4)cnc23)cc1S(N)(=O)=O
> 10 µM

// query: c1cc(-c2nn[nH]n2)cc(-c2cnn3cc(-c4ccc(CCN5CCCCC5)cc4)cnc23)c1
> 10 µM

// query: NS(=O)(=O)c1ccc(-c2cnn3cc(-c4ccc(C5(O)CCNCC5)cc4)cnc23)c2ccccc12
> 10 µM

// query: COc1ccc2ccccc2c1-c1cnn2cc(-c3ccc(N4[C@H](C)CNC[C@@H]4C)cc3)cnc12
12.7 µM

// query: C[C@H](O)c1cccc(-c2cnn3cc(-c4ccc(OC5(CN6C7CCC6CC7)CC5)cc4)cnc23)c1
> 10 µM

// query: CS(=O)(=O)c1cccc(-c2cnn3cc(-c4ccc(C5CCNCC5)cc4)cnc23)c1
> 10 µM

// query: CS(=O)(=O)c1cccc(-c2cnn3cc(-c4ccc(CN5CCCC5)cc4)cnc23)c1
4.4 µM

// query: C[C@@H]1CNC[C@H](C)N1c1ccc(-c2cnc3c(-c4ccc(C(N)=O)c5ccccc45)cnn3c2)cc1
0.92 µM

// query: CC(O)c1cccc(-c2cnn3cc(-c4ccc(C5(N)CC5)cc4)cnc23)c1 (stereo not drawn)
> 10 µM

// query: CNS(=O)(=O)c1cccc(-c2cnn3cc(-c4ccc(N5[C@H](C)CNC[C@@H]5C)cc4)cnc23)c1
4.8 µM

// query: CC(O)c1cccc(-c2cnn3cc(-c4ccc(CN5CCCCC5)cc4)cnc23)c1 (stereo not drawn)
> 10 µM

// query: C[C@@H]1CNC[C@H](C)N1c1ccc(-c2cnc3c(-c4cccc5c(C#N)cccc45)cnn3c2)cc1
1.21 µM

// query: NS(=O)(=O)c1ccc(-c2cnn3cc(-c4ccc(OC(F)(F)CN5CCCCC5)cc4)cnc23)c2ccccc12
> 10 µM
